# Measurement Target: MLKL (Homo sapiens)
# Sequence (Q8NB16 1-471): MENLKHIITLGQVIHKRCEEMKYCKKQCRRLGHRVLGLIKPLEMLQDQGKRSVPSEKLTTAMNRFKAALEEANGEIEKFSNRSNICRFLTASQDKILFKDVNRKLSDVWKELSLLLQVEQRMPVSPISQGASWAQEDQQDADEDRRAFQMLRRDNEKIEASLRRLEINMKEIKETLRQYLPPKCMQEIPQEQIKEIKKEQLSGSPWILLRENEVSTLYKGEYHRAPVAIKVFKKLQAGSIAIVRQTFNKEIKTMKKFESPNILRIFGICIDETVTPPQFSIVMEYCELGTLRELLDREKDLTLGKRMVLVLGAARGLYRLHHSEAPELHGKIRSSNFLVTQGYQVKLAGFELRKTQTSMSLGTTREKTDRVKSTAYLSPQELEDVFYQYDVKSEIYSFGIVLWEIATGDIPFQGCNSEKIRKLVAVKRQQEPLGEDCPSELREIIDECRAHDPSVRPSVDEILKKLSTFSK
# Test Details: MLKL degradation assay in HepG2 cell line (western blot)
# Type: cell-based
# Design: endogenous in cells; host or cells: HepG2 or HaCaT
# Settings: compound 10 μM; cell line not given
Test Readout: Degradation assay (Degradation %) 10 μM

Compound | Measurement Target | Value Reported
Nc1ncc(-c2cnn(C3CCN(CCOCCNC(=O)CNc4ccc5c(c4)C(=O)N(C4CCC(=O)NC4=O)C5=O)CC3)c2)nc1C(=O)O[C@@H](C(=O)Nc1ccc(F)cc1)c1ccccc1 (stereo partly drawn) | MLKL (Homo sapiens) | 69.02

I = Nc1ncc(-c2cnn(C3CCN(CCOCCNC(=O)COc4ccc5c(c4)C(=O)N(C4CCC(=O)NC4=O)C5=O)CC3)c2)nc1C(=O)O[C@@H](C(=O)Nc1ccc(F)cc1)c1ccccc1 (stereo partly drawn)
II = Nc1ncc(-c2cnn(C3CCN(C(=O)C4CCN(C(=O)CNc5cccc6c5C(=O)N(C5CCC(=O)NC5=O)C6=O)CC4)CC3)c2)nc1C(=O)OC(C(=O)Nc1ccc(F)cc1)c1ccccc1 (stereo not drawn)
## Input Hi team, can someone confirm which has the larger Degradation assay (Degradation %) 10 μM: I or II ? Thanks. Select an item and report its label.
## Output II
(II: 63.11%, I: 24.52%)

----------
# System: FADD−/− Jurkat cells
# Test Details: Necroptosis inhibition assay, TNF-α-induced necroptosis (CellTiter-Glo 2.0)
# Type: cell-based, human
# Settings: compound 1 μM; TNF-α 15 ng/mL
In this section, each of the molecules is paired with its reported Necroptosis inhibition assay (Rescue %) 1 μM.
The answer is to be given in %; state only the numeric part.

Known Necroptosis inhibition assay (Rescue %) 1 μM results, listed for orientation:
Molecule | Value Reported
Nc1ncc(-c2cnn(C3CCN(CCOC4CCN(C(=O)COc5ccc6nnn(C7CCC(=O)NC7=O)c(=O)c6c5)CC4)CC3)c2)nc1C(=O)O[C@@H](C(=O)Nc1ccc(F)cc1)c1ccccc1 (some centres unmarked) | 62.68
Nc1ncc(-c2cnn(C3CCN(CCCN4CCN(C(=O)CNc5cccc6c5C(=O)N(C5CCC(=O)NC5=O)C6=O)CC4)CC3)c2)nc1C(=O)OC(C(=O)Nc1ccc(F)cc1)c1ccccc1 (centres unmarked) | 50.09
Nc1ncc(-c2cnn(C3CCN(CCOCCOCCOCCNC(=O)COc4cccc5c4C(=O)N(C4CCC(=O)NC4=O)C5=O)CC3)c2)nc1C(=O)O[C@@H](C(=O)Nc1ccc(F)cc1)c1ccccc1 (some centres unmarked) | 31.1
Nc1ncc(-c2cnn(C3CCN(CCOCCOCCNC(=O)COc4cccc5c4C(=O)N(C4CCC(=O)NC4=O)C5=O)CC3)c2)nc1C(=O)O[C@@H](C(=O)Nc1ccc(F)cc1)c1ccccc1 (some centres unmarked) | 46.82

Now consider the entry below.
# lookup: Nc1ncc(-c2ccc(N3CCN(CC4CCN(C(=O)COc5cccc6c5C(=O)N(C5CCC(=O)NC5=O)C6=O)CC4)CC3)nc2)nc1C(=O)OC(C(=O)Nc1ccc(F)cc1)c1ccccc1 (centres unmarked) on FADD−/− Jurkat cells, Necroptosis inhibition assay (Rescue %) 1 μM = 46.68

----------
# Measurement Target: MLKL (Homo sapiens)
# Sequence (Q8NB16 1-471): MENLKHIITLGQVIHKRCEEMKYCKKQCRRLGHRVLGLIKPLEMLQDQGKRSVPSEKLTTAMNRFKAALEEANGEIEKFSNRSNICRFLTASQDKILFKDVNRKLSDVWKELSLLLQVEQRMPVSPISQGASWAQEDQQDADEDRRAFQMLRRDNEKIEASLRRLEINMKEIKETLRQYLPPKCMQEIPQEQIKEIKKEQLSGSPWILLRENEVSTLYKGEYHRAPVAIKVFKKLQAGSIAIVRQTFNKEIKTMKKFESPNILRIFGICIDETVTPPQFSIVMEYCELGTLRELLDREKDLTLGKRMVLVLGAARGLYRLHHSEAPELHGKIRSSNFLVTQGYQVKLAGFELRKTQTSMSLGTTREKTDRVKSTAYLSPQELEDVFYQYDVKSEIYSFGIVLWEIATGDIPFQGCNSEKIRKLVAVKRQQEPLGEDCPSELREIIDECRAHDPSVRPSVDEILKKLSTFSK
# Test Details: MLKL degradation assay in HepG2 cell line (western blot)
# Type: cell-based
# Parameters: endogenous in cells; host or cells: HepG2 or HaCaT
# Settings: compound 1 μM; cell line not given
Test Readout: Degradation assay (Degradation %) 1 μM

P = Nc1ncc(-c2cnn(C3CCN(C(=O)COCCOCCNC(=O)CNc4ccc5c(c4)C(=O)N(C4CCC(=O)NC4=O)C5=O)CC3)c2)nc1C(=O)O[C@@H](C(=O)Nc1ccc(F)cc1)c1ccccc1 (stereo partly drawn) [TDH-191]
Q = COc1ccc(C(=O)N2CCC(C(=O)N3CCC(CN4CCC(CCN5CCC(n6cc(-c7cnc(N)c(C(=O)O[C@@H](C(=O)Nc8ccc(F)cc8)c8ccccc8)n7)cn6)CC5)CC4)CC3)CC2)cc1N1CCC(=O)NC1=O [TDH-511]
## Input Higher Degradation assay (Degradation %) 1 μM between P and Q ? Your answer should be the label attached to the chosen record.
## Output Q

----------
# Measurement Target: UniProt:Q8NB16
# Sequence (Q8NB16 1-471): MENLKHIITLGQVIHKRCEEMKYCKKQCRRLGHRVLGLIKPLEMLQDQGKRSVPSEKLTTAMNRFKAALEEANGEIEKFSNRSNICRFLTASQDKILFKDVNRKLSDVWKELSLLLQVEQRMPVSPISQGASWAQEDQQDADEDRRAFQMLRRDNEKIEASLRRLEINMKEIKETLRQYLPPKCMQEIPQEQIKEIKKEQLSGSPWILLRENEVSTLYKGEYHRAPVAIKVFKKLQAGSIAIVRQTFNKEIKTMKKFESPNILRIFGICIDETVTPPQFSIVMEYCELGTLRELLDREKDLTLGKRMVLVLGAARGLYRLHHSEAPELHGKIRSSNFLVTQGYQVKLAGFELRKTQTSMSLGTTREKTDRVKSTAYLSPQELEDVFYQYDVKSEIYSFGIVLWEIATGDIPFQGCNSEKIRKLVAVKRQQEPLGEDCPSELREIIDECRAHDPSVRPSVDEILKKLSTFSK
# Test Details: MLKL degradation assay in HepG2 cell line (western blot)
# Type: cell-based
# Set-up: endogenous in cells; host or cells: HepG2 or HaCaT
# Settings: compound 10 μM; cell line not given
Test Readout: Degradation assay (Degradation %) 10 μM

Compound | Measurement Target | Test Readout | Value Reported
Nc1ncc(-c2cnn(C3CCN(C(=O)COCCOCCNc4cccc5c4C(=O)N(C4CCC(=O)NC4=O)C5=O)CC3)c2)nc1C(=O)O[C@@H](C(=O)Nc1ccc(F)cc1)c1ccccc1 (some centres unmarked) | UniProt:Q8NB16 | Degradation assay (Degradation %) 10 μM | 62.43
COc1cccc(NC(=O)[C@H](OC(=O)c2nc(-c3cnn(C4CCN(CCCN5CCN(C(=O)COc6ccc7c(c6)C(=O)N(C6CCC(=O)NC6=O)C7=O)CC5)CC4)c3)cnc2N)c2ccccc2)c1 (some centres unmarked) | UniProt:Q8NB16 | Degradation assay (Degradation %) 10 μM | 88.15
Nc1ncc(-c2cnn(C3CCN(CCCN4CCN(C(=O)CCc5ccc6c(c5)C(=O)N(C5CCC(=O)NC5=O)C6=O)CC4)CC3)c2)nc1C(=O)O[C@@H](C(=O)Nc1ccc(F)cc1)c1ccccc1 (some centres unmarked) | UniProt:Q8NB16 | Degradation assay (Degradation %) 10 μM | 81.95
Nc1ncc(-c2cnn(C3CCN(CCOC4CCN(C(=O)c5ccc6c(N7CCC(=O)NC7=O)coc6c5)CC4)CC3)c2)nc1C(=O)O[C@@H](C(=O)Nc1ccc(F)cc1)c1ccccc1 | UniProt:Q8NB16 | Degradation assay (Degradation %) 10 μM | 70.50
Nc1ncc(-c2cnn(C3CCN(CCC4CCN(C(=O)c5cccc(C(=O)NC6CCC(=O)NC6=O)c5)CC4)CC3)c2)nc1C(=O)O[C@@H](C(=O)Nc1ccc(F)cc1)c1ccccc1 (some centres unmarked) | UniProt:Q8NB16 | Degradation assay (Degradation %) 10 μM | 80.46
